- MEASURED TARGET: human serum albumin (HSA) (Homo sapiens)
- Construct: gene ALB
- Sequence (P02768 25-609): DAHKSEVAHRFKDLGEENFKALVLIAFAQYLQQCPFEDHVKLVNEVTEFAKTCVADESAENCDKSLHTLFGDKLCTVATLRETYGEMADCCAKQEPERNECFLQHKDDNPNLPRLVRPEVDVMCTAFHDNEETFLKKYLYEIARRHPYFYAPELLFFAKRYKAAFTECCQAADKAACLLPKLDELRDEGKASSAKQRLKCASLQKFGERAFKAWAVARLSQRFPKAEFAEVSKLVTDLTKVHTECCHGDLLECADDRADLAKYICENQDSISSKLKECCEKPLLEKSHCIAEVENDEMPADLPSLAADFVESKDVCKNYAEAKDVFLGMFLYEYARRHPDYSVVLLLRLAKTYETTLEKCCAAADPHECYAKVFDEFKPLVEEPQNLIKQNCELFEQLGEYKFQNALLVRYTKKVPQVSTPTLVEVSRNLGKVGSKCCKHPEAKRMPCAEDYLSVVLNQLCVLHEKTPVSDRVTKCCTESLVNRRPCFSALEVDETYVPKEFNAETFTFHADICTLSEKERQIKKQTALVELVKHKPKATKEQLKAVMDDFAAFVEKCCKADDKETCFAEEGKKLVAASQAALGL
- ASSAY EXPLANATION: equilibrium dialysis; also fluorescence titrations and anisotropy, HSA affinity chromatography, CD
- Type: binding
- SETTINGS: read-out: % bound
READOUT NAME: fraction unbound

>>> result_value("C[C@@H]1Cc2c(Cl)cc(C(=O)N[C@@H](Cc3ccccc3)C(=O)O)c(O)c2C(=O)O1 [OTA, Ochratoxin A]")
"< 0.004"
